Just for reference, paper PMC6321168 is where these values come from.

# assay notes: Fecal excretion study in rats after oral NS, SF or CNS (LC–MS/MS)
# Type: in vivo
# experimental parameters: male, Sprague Dawley; rat feces, oral NS 60 mg/kg, 4 h
test readout: concentration at 4 h (ng/mL)
// units = ng/mL; emit number, no label

# concentration at 4 h lookup, item CC(C)=CCC[C@](C)(O[C@@H]1O[C@H](CO[C@@H]2O[C@H](CO)[C@@H](O)[C@H](O)[C@H]2O)[C@@H](O)[C@H](O)[C@H]1O)[C@H]1CC[C@]2(C)[C@@H]1[C@H](O)C[C@@H]1[C@@]3(C)CC[C@H](O[C@@H]4O[C@H](CO)[C@@H](O)[C@H](O)[C@H]4O[C@@H]4O[C@H](CO)[C@@H](O)[C@H](O)[C@H]4O)C(C)(C)[C@@H]3CC[C@]12C [ginsenoside Rb1]
1080
